Values were extracted from patent EP4410284A1.

Test system: GM16513 cells
Format: cell-based
Conditions: 10 µM, 3 days, PI positive cells (dead cells)
READOUT: % PI+ cells

> print(dat)
                                   molecule      readout  assay.value
1  Cc1ccc(C(=O)NCCCCCC(=O)Nc2ccccc2N)cc1 [RG2833]  % PI+ cells           3%
2  O=C(CCCCCCNC(=O)c1cnc(N(c2ccccc2)c2ccccc2Cl)nc1)NO [Citarinostat]  % PI+ cells           4%
3  CCCCc1nc2cc(/C=C/C(=O)NO)ccc2n1CCN(CC)CC [Pracinostat]  % PI+ cells          31%
4  Cc1[nH]c2ccccc2c1CCNCc1ccc(/C=C/C(=O)NO)cc1 [Panobinostat]  % PI+ cells          32%
5  O=C(/C=C/c1ccc(O)c(O)c1)c1ccc(O[C@@H]2O[C@H](CO)[C@@H](O)[C@H](O)[C@H]2O)c(O)c1O [Marein]  % PI+ cells          77%
6  CC(=O)Nc1ccc(C(=O)Nc2ccccc2N)cc1 [Tacedinaline]  % PI+ cells           2%
7  Nc1ccccc1NC(=O)CCCCCCC(=O)Nc1ccccc1 [BML-210]  % PI+ cells           3%
8  Cc1ccc(NC(=O)CCCCCC(=O)Nc2ccccc2N)cc1 [Pimelic Diphenylamide 106]  % PI+ cells           3%
9  O=C(NO)c1cnc(NC2(c3ccccc3)CC2)nc1 [ACY-738]  % PI+ cells           3%

----------
Test system: GM16513 cells
Test: Catalase import immunofluorescence, high-content screening (% importing cells)
Assay type: cell-based, human
Details: GM16513 cells, 1.3 µM, 3 days
Counter-ions that a name gives are not always drawn.
READOUT: % Importing cells (%)

> print(dat)
                                    compound  reading.unit  assay.value
 1          CC(=O)Nc1ccc(C(=O)Nc2ccccc2N)cc1             %           15
 2               O=C(CCCCCCC(=O)Nc1ccccc1)NO             %           35
 3         O=C(NO)c1ccc(CNc2cccc3cccnc23)cc1             %           29
 4                   CCCCNNC(=O)c1ccc(Br)cc1             %           12
 5   O=C(NO)c1cnc(NC2(c3cccc(F)c3)CCCCC2)nc1             %           21
 6  COc1cccc2c1c(O)c(C(=O)N(C)c1ccc(C(F)(F)F)cc1)c(=O)n2C             %           23
 7  Nc1cc(F)ccc1NC(=O)c1ccc(CNC(=O)/C=C/c2cccnc2)cc1             %           43
 8  Nc1ccccc1NC(=O)c1ccc(CNC(=O)OCc2cccnc2)cc1             %           45
 9         Cc1cc(C)cc(C(=O)NOCCCCCC(=O)NO)c1             %           86
10                  Cc1cc(Cl)ccc1OCCCC(=O)NO             %           12
11                  O=C1CCc2c(ccc3ccccc23)O1             %           33
12  O=C(NO)c1ccc(CNC(=O)c2[nH]c(-c3ccc(O)cc3)cc2-c2ccoc2)cc1.O=C(O)C(F)(F)F [QTX125 (TFA)]             %           83
13  Nc1ccccc1NC(=O)c1ccc(CCCC(=O)Nc2ccc([C@@H]3C[C@H]3N)cc2)cc1             %           59
14  COc1cc(C=CC(=O)O)cc(OC)c1O (stereo in doubt)             %           21
15  CCN(CC)Cc1ccc2cc(COC(=O)Nc3ccc(C(=O)NO)cc3)ccc2c1 [Givinostat (hydrochloride monohydrate), Givinostat]             %           81
16  Cc1ccc(NC(=O)CCCCCC(=O)Nc2ccccc2N)cc1 [Pimelic Diphenylamide 106]             %           22
17  Nc1[nH]c(=O)nc2c1ncn2[C@@H]1O[C@H](CO)[C@@H](O)[C@H]1O [Crotonoside]             %           20
18   O=C(CCCCCN1C(=O)c2cccc3cccc(c23)C1=O)NO             %           57
19      O=C(NO)c1ccc(CN2CCCc3cc(Cl)ccc32)cc1             %           21

----------
Entries and their % PI+ cells
Test system: PEX405 cells
Type: cell-based
Settings: 1.3 µM, 3 days, PI positive cells (dead cells)
READOUT: % PI+ cells (%)

> print(dat)
                                    compound      readout  assay.value
 1  Cn1cc(CNCC2CCN(c3ncc(C(=O)NO)cn3)CC2)c2ccccc21  % PI+ cells           24
 2       COc1ccc(Cn2ccc3ccc(C(=O)NO)cc32)cc1  % PI+ cells            1
 3  Nc1ccccc1NC(=O)c1ccc(CNC(=O)OCc2cccnc2)cc1  % PI+ cells            2
 4  CC(=O)N[C@@H](CCCCN)C(=O)Nc1ccc2c(C)cc(=O)oc2c1  % PI+ cells            0
 5          CC(=O)Nc1ccc(C(=O)Nc2ccccc2N)cc1  % PI+ cells            1
 6  CC(C)(CNC(=O)c1cccc(-c2noc(C(F)(F)F)n2)c1)c1coc(-c2ccccc2)n1  % PI+ cells            1
 7  Nc1[nH]c(=O)nc2c1ncn2[C@@H]1O[C@H](CO)[C@@H](O)[C@H]1O [Crotonoside]  % PI+ cells            0
 8      COC(=O)c1ccc(OC(=O)CCCCCCC(=O)NO)cc1  % PI+ cells            0
 9   O=C(CCCCCN1C(=O)c2cccc3cccc(c23)C1=O)NO  % PI+ cells            1
10  O=C(CCCCCCC(=O)Nc1ccc(CN[C@H](C(=O)OC2CCCC2)c2ccccc2)cc1)NO  % PI+ cells            1
11  O=C(/C=C/c1ccc(O)c(O)c1)c1ccc(O[C@@H]2O[C@H](CO)[C@@H](O)[C@H](O)[C@H]2O)c(O)c1O  % PI+ cells            0
12  O=C(CCc1ccc(CN[C@H](C(=O)OC2CCCC2)C2CCCCC2)cn1)NO  % PI+ cells            4
13                   Nc1ccccc1NC(=O)c1cnccn1  % PI+ cells            1
14         O=C(NO)c1ccc(CNc2cccc3cccnc23)cc1  % PI+ cells            1
15  CCOC(=O)NCCCC(=O)NCCc1ccccc1 [Santacruzamate A]  % PI+ cells            2
16                  Cc1cc(Cl)ccc1OCCCC(=O)NO  % PI+ cells            0
17                   CCCCNNC(=O)c1ccc(Br)cc1  % PI+ cells            0
18  Cc1[nH]c2ccccc2c1CCNCc1ccc(/C=C/C(=O)NO)cc1  % PI+ cells           48
19   CCCCN(Cc1ccc(C(=O)NO)cc1)C(=O)Nc1ccccc1  % PI+ cells            1

----------
Tested on: PEX405 cells
Assay: Catalase import immunofluorescence, high-content screening (% importing cells)
Format: cell-based, human
Details: PEX405 cells, 1.3 µM, 3 days
Entries and their % Importing cells
READOUT: % Importing cells (%)

> print(dat)
                                    compound            readout  assay.value
 1         O=C(NO)c1ccc(CNc2cccc3cccnc23)cc1  % Importing cells            6
 2   O=C(CCCCCN1C(=O)c2cccc3cccc(c23)C1=O)NO  % Importing cells           15
 3  CCN1CCN(C(c2cccnc2)c2cc(Cl)c3cccnc3c2O)CC1 (centres unmarked)  % Importing cells            4
 4  COc1cc(C=CC(=O)O)cc(OC)c1O (stereo in doubt)  % Importing cells            3
 5  O=C(NO)c1cnc(N2C[C@@H]3[C@H](C2)[C@H]3NCc2ccc3cc(F)ccc3n2)nc1  % Importing cells           14
 6  O=C(CCc1ccc(CN[C@H](C(=O)OC2CCCC2)C2CCCCC2)cn1)NO  % Importing cells           11
 7         O=C(NO)c1cnc(NC2(c3ccccc3)CC2)nc1  % Importing cells            5
 8  COc1cccc2c1c(O)c(C(=O)N(C)c1ccc(C(F)(F)F)cc1)c(=O)n2C  % Importing cells            7
 9           Oc1cc(O)cc(/C=C/c2c(O)cccc2O)c1  % Importing cells            2
10  Nc1cc(F)ccc1NC(=O)c1ccc(CNC(=O)/C=C/c2cccnc2)cc1  % Importing cells           14
11  O=C(CCCCCCNC(=O)c1cnc(N(c2ccccc2)c2ccccc2Cl)nc1)NO  % Importing cells            9
12     O=C(NO)c1ccc(CC(=O)N(CCO)c2ccccc2)cc1  % Importing cells            6
13  Cc1nn(C)cc1CN1CCC(c2ccc(C(=O)Nc3ccccc3N)cc2)CC1  % Importing cells           19
14  Nc1ccccc1NC(=O)c1ccc(CNC(=O)OCc2cccnc2)cc1  % Importing cells           15
15   O=C(NO)c1cnc(NC2(c3cccc(F)c3)CCCCC2)nc1  % Importing cells            4
16  CCOC(=O)c1cnc(NC2(c3ccccc3)CC2)nc1 [CG347B]  % Importing cells            4
17          CC(=O)Nc1ccc(C(=O)Nc2ccccc2N)cc1  % Importing cells            2
18  Cl.O=C(NO)c1ccc(Cn2cc(-c3ccc(CN4CCCC4)cc3)nn2)cc1  % Importing cells            7
19               O=C(CCCCCCC(=O)Nc1ccccc1)NO  % Importing cells           13
20       CC(=O)Nc1ccc(C(=O)Nc2ccc(F)cc2N)cc1  % Importing cells            4
